Recorded Ki for the following compounds
target_desc: Muscarinic acetylcholine receptor M1 (Homo sapiens, UniProt P11229)
Sequence (P11229 whole entry): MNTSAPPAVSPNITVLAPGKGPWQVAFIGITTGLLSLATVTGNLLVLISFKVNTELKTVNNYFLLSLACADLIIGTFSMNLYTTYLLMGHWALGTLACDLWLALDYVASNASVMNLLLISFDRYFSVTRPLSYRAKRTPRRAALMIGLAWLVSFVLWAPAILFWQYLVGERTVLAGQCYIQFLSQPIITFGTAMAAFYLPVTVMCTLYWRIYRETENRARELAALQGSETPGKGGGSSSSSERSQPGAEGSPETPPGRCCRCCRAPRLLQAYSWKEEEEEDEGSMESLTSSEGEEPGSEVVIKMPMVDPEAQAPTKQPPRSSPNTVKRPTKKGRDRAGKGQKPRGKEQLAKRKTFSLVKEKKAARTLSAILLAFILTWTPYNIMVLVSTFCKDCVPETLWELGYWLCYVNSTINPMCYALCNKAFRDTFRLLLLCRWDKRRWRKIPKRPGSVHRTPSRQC
readout: Ki (µM)

mol=Cc1ccc([C@H]2CCCN2)o1 recorded_measurement=14.5
mol=CN1CCC[C@@H]1c1ccco1 recorded_measurement=77.6
mol=Cc1ccc([C@H]2CCC[N+]2(C)C)o1.[I-] recorded_measurement=13.8
